Data provenance: the supplement of paper PMC8728848

# tgt: Gal(b1-4)GlcNAc(b1-2)Man(a1-3)Man(b1-4)GlcNAc(b1-4)GlcNAc
# measurement protocol: glycan array binding signal (z-score within array); higher = stronger binding
# stated conditions: glycan notation: IUPAC condensed, linker removed
The full list was thinned out, with the strongest signals kept by preference.
quantity measured: glycan array binding signal (z-score)
Numbers only.

{"binder": "RBMC1 (Vibrio cholerae) (protein) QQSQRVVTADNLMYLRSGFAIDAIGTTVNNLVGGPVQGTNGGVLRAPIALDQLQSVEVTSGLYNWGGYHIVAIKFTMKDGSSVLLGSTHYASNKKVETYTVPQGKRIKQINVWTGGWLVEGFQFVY", "assay value": -0.354}
{"binder": "PEB4 (Campylobacter jejuni), A1VYV6 (protein) MKKFSLVAAALIAGVALNVNAATVATVNGKSISDAEVSEFFAPMLRGQDFKTLPDNQKKALIQQYIMQDLILQDAKKQNLEKDPLYTKELDRAKDAILVNVYQEKILNTIKIDAAKVKAFYDQNKDKYVKPARVQAKHILVATEKEAKDIINELKGLKGKELDAKFSELAKEKSIDPGSKNQGGELGWFDQSTMVKPFTDAAFALKNGTITTTPVKTNFGYHVILKENSQAKGQIKFDEVKQGIENGLKFEEFKKVINQKGQDLLNSAKVEYK", "assay value": -0.258}
{"binder": "SJCP3842 (Schistosoma japonicum) (protein) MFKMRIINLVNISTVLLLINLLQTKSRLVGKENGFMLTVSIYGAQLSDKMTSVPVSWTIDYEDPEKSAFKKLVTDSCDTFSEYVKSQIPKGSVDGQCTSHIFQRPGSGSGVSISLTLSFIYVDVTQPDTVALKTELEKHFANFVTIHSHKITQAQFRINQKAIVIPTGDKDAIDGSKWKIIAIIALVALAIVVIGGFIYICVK", "assay value": -0.919}

Query string: Any idea what its glycan array binding signal (z-score) is? The binder is ConA (Canavalia ensiformis), P02866 (protein) MAISKKSSLFLPIFTFITMFLMVVNKVSSSTHETNALHFMFNQFSKDQKDLILQGDATTGTDGNLELTRVSSNGSPQGSSVGRALFYAPVHIWESSAVVASFEATFTFLIKSPDSHPADGIAFFISNIDSSIPSGSTGRLLGLFPDANVIRNSTTIDFNAAYNADTIVAVELDTYPNTDIGDPSYPHIGIDIKSVRSKKTAKWNMQNGKVGTAHIIYNSVDKRLSAVVSYPNADSATVSYDVDLDNVLPEWVRVGLSASTGLYKETNTILSWSFTSKLKSNEIPDIATVV
Result string: -0.192
